For each entry below, report its %Inh value.
system: PAK2; settings: concentration: 1 μM, replicates: in singlicate; n = 1;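 further: KINOMEscan kinase panel screen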
// note: answer is a bare numeric in %

What value of measured %Inh is listed for CCCC(=O)Nc1n[nH]c2ncc(-c3cccc4ccccc34)cc12 [SB-642057] ?
5

What value of measured %Inh is listed for COc1cc2ncn(-c3cc(OCc4ccncc4Br)c(C(N)=O)s3)c2cc1OC [GW854278] ?
14

What value of measured %Inh is listed for Cc1ccc(Oc2ccc(Nc3ncnc4cc[nH]c34)cc2C)cn1 ?
37

What value of measured %Inh is listed for COc1cc2ncn(-c3cc(OCc4ccncc4)c(C(N)=O)s3)c2cc1OC [GSK336313] ?
3

What value of measured %Inh is listed for Cl.NS(=O)(=O)c1cccc(Nc2cc(-c3ccc(F)cc3)n[nH]2)c1 [GW824645] ?
26

What value of measured %Inh is listed for CN1C(=O)C(Nc2ccccc2)=C(c2ccccc2)C1=O [SB-300079] ?
0

What value of measured %Inh is listed for COC(=O)c1c(-c2ccccc2)c2cc(C)ccc2c(=O)n1Cc1ccccc1 ?
20

What value of measured %Inh is listed for CCS(=O)c1ccc(-c2coc3ccc(-c4nnc(C)o4)cc23)cc1 (stereo not drawn) ?
0

What value of measured %Inh is listed for Cc1nc(N(C)[C@H]2CN(C(=O)CC#N)CC[C@H]2C)c2cc[nH]c2n1 ?
0

What value of measured %Inh is listed for CCC(=O)c1c(-c2ccccc2)c2cc(Cl)ccc2c(=O)n1Cc1ccc(C(=O)O)cc1 ?
0

What value of measured %Inh is listed for COc1cc(OC)cc(-c2cc3cnc(N)nc3nc2NC(=O)NC(C)(C)C)c1 ?
0

What value of measured %Inh is listed for Nc1nccc2scc(-c3ccc4c(c3)CCN4C(=O)Cc3ccccc3)c12 [GSK2576924] ?
0

What value of measured %Inh is listed for Cc1nnc(-c2ccc(C)c(-c3ccc(C(=O)O)cc3)c2)o1 [GW608005] ?
9

What value of measured %Inh is listed for Nc1nc(N)c2nc(-c3ccccc3)[nH]c2n1 [SKF-12778] ?
0

What value of measured %Inh is listed for O=C(Nc1ccc2c(c1)OCO2)NC1CCN(c2ccnc(NCc3ccc(F)cc3)n2)CC1 [GSK1379859] ?
0

###

For each entry below, report its %Inh value.
system: BMPR1B; conditions: concentration: 1 μM, replicates: in singlicate; n = 1
// note: answer is a bare numeric in %

What value of measured %Inh is listed for Cc1nnc(-c2ccc(C)c(-c3ccc(C(=O)O)cc3)c2)o1 [GW608005] ?
0

What value of measured %Inh is listed for COc1cc2ncn(-c3cc(OCc4ccc(S(C)(=O)=O)cc4)c(C(N)=O)s3)c2cc1OC [GW869979] ?
30

What value of measured %Inh is listed for COc1cc2nccc(Nc3cccc(Oc4ccccc4)c3)c2cc1OC.Cl [GW284543] ?
0

What value of measured %Inh is listed for COc1cc(Nc2nccc(N3CCC(NC(=O)C(C)c4ccc(Cl)cc4)C3)n2)cc(OC)c1OC (stereo not shown) [GSK1379757] ?
0

What value of measured %Inh is listed for Cc1nn2c(=O)cc(N3CCOCC3)nc2n1Cc1cccc(Cl)c1Cl [GSK2342769] ?
0

What value of measured %Inh is listed for CCS(=O)c1ccc(-c2coc3ccc(-c4nnc(C)o4)cc23)cc1 (stereo not shown) ?
6

What value of measured %Inh is listed for O=C(Nc1n[nH]c2cc(-c3ccccc3F)ccc12)C1CC1 [SB-733371] ?
24

What value of measured %Inh is listed for Cc1ccc(-c2ccc3c(ccc4sc5c(c43)NC[C@@H](C)N=C5N(C)C)n2)cn1 ?
0

What value of measured %Inh is listed for CN1C(=O)C(Nc2ccccc2)=C(c2ccccc2)C1=O [SB-300079] ?
0

What value of measured %Inh is listed for Cl.NS(=O)(=O)c1cccc(Nc2cc(-c3ccc(F)cc3)n[nH]2)c1 [GW824645] ?
0

What value of measured %Inh is listed for CN(C)c1cc(-c2ccc3c(N)n[nH]c3c2)nc(N)n1 [GSK2219329] ?
0

What value of measured %Inh is listed for COc1cc2ncn(-c3cc(OCc4ccncc4)c(C(N)=O)s3)c2cc1OC [GSK336313] ?
0

What value of measured %Inh is listed for Cc1cc(Nc2nc(-c3cccc(C)n3)nc3ccccc23)ccn1 [GW872411] ?
0

What value of measured %Inh is listed for Nc1ncnc2c1ncn2-c1cccc(F)c1 [SKF-97560] ?
29

What value of measured %Inh is listed for O=C(Nc1ccc2c(c1)OCO2)NC1CCN(c2ccnc(NCc3ccc(F)cc3)n2)CC1 [GSK1379859] ?
0

What value of measured %Inh is listed for O=c1cc(N2CCOCC2)nc2n(Cc3ccc(F)c(Cl)c3)ccn12 [GSK2297099] ?
0

What value of measured %Inh is listed for COc1cc(Nc2nccc(N3CCC(NC(=O)C4COc5ccccc5O4)C3)n2)cc(OC)c1OC (stereo not shown) [GSK1379761] ?
0

What value of measured %Inh is listed for Cc1nnc(-c2ccc3ncn(-c4ccc(S(C)=O)cc4)c3c2)o1 (stereo not shown) ?
0

What value of measured %Inh is listed for COc1cc2nccc(Nc3ccc(OCc4ccc(NC(C)=O)cc4)cc3)c2cc1OC.Cl [GW440135] ?
0

###

tested on: MKNK2; details: concentration: 1 μM, replicates: in singlicate; n = 1
endpoint name: %Inh (%)
// note: answer is a bare numeric in %

What value of measured %Inh is listed for Fc1cccc(CSc2nnc(-c3ccc4c(c3)CCO4)o2)c1 ?
4

What value of measured %Inh is listed for Cn1c(=O)c(F)c(Nc2ccc(I)cc2F)c2c(=O)n(OC[C@H](O)CO)cnc21 ?
0

What value of measured %Inh is listed for COc1ccc(-c2coc3ccc(-c4nnc(SCc5cccc(C#N)c5)o4)cc23)cc1 ?
2

What value of measured %Inh is listed for Cc1ccccc1COc1cc(-n2cnc3cc(Cl)ccc32)sc1C(N)=O ?
0

What value of measured %Inh is listed for O=c1cc(N2CCOCC2)nc2n(Cc3ccc(F)c(Cl)c3)ccn12 ?
1

What value of measured %Inh is listed for O=C(Nc1n[nH]c2cc(-c3ccccc3F)ccc12)C1CC1 ?
18

What value of measured %Inh is listed for COc1cccc(-n2cnc3c(N)ncnc32)c1 ?
31

What value of measured %Inh is listed for Nc1nccc2scc(-c3ccc4c(c3)CCN4C(=O)Cc3ccccc3)c12 ?
2

What value of measured %Inh is listed for COc1cc2nccc(Nc3cccc(Oc4ccccc4)c3)c2cc1OC.Cl ?
0

What value of measured %Inh is listed for O=C(NCc1cccs1)c1cc(C(=O)c2c(Cl)cccc2Cl)c[nH]1 ?
0

What value of measured %Inh is listed for Cc1nn2c(=O)cc(N3CCOCC3)nc2n1Cc1cccc(Cl)c1Cl ?
4

What value of measured %Inh is listed for CN1C(=O)C(Nc2ccccc2)=C(c2ccccc2)C1=O ?
0

What value of measured %Inh is listed for COc1cc(OC)cc(-c2cc3cnc(N)nc3nc2NC(=O)NC(C)(C)C)c1 ?
0

What value of measured %Inh is listed for Cc1c(Cn2c(C)nn3c(=O)cc(N4CCO[C@H](C)C4)nc23)cccc1C(F)(F)F ?
9

What value of measured %Inh is listed for Nc1ncnc2c1ncn2-c1cccc2ccccc12 ?
0

What value of measured %Inh is listed for COc1cc(Nc2ccnc3ccc(C(F)(F)F)cc23)cc(OC)c1OC ?
9

What value of measured %Inh is listed for COc1cc2ncn(-c3cc(OCc4ccncc4)c(C(N)=O)s3)c2cc1OC ?
2

What value of measured %Inh is listed for CCC(=O)c1c(-c2ccccc2)c2cc(Cl)ccc2c(=O)n1Cc1cc(S(C)(=O)=O)n(CC(N)=O)n1 ?
0

What value of measured %Inh is listed for COc1cc(Nc2nccc(N3CCC(NC(=O)C4COc5ccccc5O4)C3)n2)cc(OC)c1OC (stereo not shown) ?
31

What value of measured %Inh is listed for COc1ccc(Nc2nccc(N3CCC(NS(=O)(=O)c4ccc(NC(C)=O)cc4)C3)n2)cc1 (stereo not shown) ?
0

What value of measured %Inh is listed for COc1cccc(C2=C(N(C)c3ccccc3)C(=O)NC2=O)c1 ?
0

What value of measured %Inh is listed for O=C(Nc1n[nH]c2nc(-c3ccccc3)c(Br)cc12)C1CC1 ?
1

What value of measured %Inh is listed for COc1ccc(-c2cc3c(C)nc(N)nc3n([C@H]3CC[C@H](OCCO)CC3)c2=O)cn1 ?
0

What value of measured %Inh is listed for O=C(Nc1n[nH]c2nc(-c3ccccc3)c(Cl)cc12)C1CC1 ?
8

What value of measured %Inh is listed for O=C(NCCNc1ccnc(Nc2ccc(F)cc2)n1)Nc1ccc2c(c1)OCO2 ?
5

What value of measured %Inh is listed for CCC(=O)c1c(-c2ccccc2)c2cc(Cl)ccc2c(=O)n1Cc1ccc(C(=O)O)cc1 ?
0

What value of measured %Inh is listed for CCC(=O)c1c(-c2ccccc2)c2cc(Cl)ccc2c(=O)n1Cc1cc(S(C)(=O)=O)n(CCC(C)(C)O)n1 ?
0

What value of measured %Inh is listed for Cc1ccc(Oc2ccc(Nc3ncnc4cc[nH]c34)cc2C)cn1 ?
41

What value of measured %Inh is listed for CCn1c(-c2nonc2N)nc2ccccc21 ?
59

What value of measured %Inh is listed for Cl.NS(=O)(=O)c1cccc(Nc2cc(-c3ccc(F)cc3)n[nH]2)c1 ?
0

What value of measured %Inh is listed for Nc1n[nH]c2ncc(-c3ccccc3)cc12 ?
88
